# testSystem: Recombinant human soluble BACE-1 catalytic domain (Homo sapiens (Human))
# Sequence (P56817 75-416): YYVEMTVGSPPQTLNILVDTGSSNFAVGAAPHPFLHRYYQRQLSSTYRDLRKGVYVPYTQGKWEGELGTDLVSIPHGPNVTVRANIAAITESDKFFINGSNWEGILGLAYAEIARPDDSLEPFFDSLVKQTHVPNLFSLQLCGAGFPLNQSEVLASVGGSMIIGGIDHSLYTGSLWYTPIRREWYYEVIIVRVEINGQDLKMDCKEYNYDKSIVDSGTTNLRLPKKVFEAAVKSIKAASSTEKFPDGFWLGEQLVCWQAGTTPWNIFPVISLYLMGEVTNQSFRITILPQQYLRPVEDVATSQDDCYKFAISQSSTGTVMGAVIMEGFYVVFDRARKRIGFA
# runDescription: BACE-1 Ki Assay (BACE-1 HTRF FRET Assay)
# Format: biochemical
# conditionNotes: Table 3; comparator compounds of WO2011044181; read-out: BACE-1 Ki Nm
pKi: −log10 of the molar value.
Reported pKi values for a set of compounds

{"columns": ["compound", "pKi"],
 "data": [
  ["COc1ccccc1Nc1cc([C@]2(C)CS(=O)(=O)N(C)C(=N)N2)ccn1 [167 (Table XXI), reference compound]", 6.46],
  ["CN1C(=N)N[C@](C)(c2cccc(Nc3cccc4c3OC(F)(F)O4)n2)CS1(=O)=O [163 (Table XXI), reference compound]", 5.33],
  ["CN1C(=N)N[C@](C)(c2cc(Nc3cccc4c3OC(F)(F)O4)ccc2F)CS1(=O)=O [103 (Scheme 18), reference compound]", 7.38]
]}

Recorded values, source patent US10071998B2.
